TEST SYSTEM: α1a (bovine) adrenoreceptor (Bos taurus)
Sequence (P18130 whole entry): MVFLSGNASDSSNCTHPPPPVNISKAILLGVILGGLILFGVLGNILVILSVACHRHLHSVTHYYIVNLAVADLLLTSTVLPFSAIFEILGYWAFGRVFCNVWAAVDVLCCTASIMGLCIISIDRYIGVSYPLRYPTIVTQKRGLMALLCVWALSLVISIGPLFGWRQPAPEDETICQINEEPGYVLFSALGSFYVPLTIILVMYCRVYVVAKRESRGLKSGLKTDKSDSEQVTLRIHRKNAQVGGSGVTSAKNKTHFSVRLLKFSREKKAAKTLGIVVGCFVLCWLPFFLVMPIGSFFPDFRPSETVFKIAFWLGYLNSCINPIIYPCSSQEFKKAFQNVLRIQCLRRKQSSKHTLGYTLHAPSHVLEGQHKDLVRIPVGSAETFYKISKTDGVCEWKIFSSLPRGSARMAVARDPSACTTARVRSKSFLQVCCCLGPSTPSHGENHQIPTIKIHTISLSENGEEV
TEST SUMMARY: [3H]-prazosin radioligand binding, cloned α1a (bovine) adrenoreceptor in LTK cells
CONDITION CONTEXT: cloned receptor in LTK cell membranes, [3H]prazosin 0.2 nM
Counter-ions that a name gives are not always drawn.
TEST READOUT: Ki (nM)

1. COc1cccc2c1N1CCN(CCn3c(=O)[nH]c4c(sc5ncc(Cl)nc54)c3=O)CC1CO2.Cl.Cl (single isomer, unassigned; (+)) [Example 8, dihydrochloride]; 0.463

(a) COc1cccc2c1N1CCN(CCCCn3c(=O)[nH]c4c(sc5ncccc54)c3=O)CC1CO2.Cl.Cl.Cl (single isomer, unassigned; (+)) [Example 15, trihydrochloride]
(b) O=c1[nH]c2c(sc3cccnc32)c(=O)n1CCCCN1CCN2c3ccccc3OCC2C1 (single isomer, unassigned; (-)) [Example 4, dihydrochloride]
// pick larger Ki from pair: a vs b Pick one; state its label.
b

(A) COc1cccc2c1N1CCN(CCCCn3c(=O)[nH]c4c(sc5ncc(Cl)nc54)c3=O)CC1CO2.Cl.Cl (single isomer, unassigned; (-)) [Example 12, dihydrochloride]
(B) COc1cccc2c1N1CCN(CCCn3c(=O)[nH]c4c(sc5cccnc54)c3=O)CC1CO2.Cl.Cl.Cl (single isomer, unassigned; (-)) [Example 9, trihydrochloride]
(C) O=c1[nH]c2c(sc3cccnc32)c(=O)n1CCCN1CCN2c3ccccc3OCC2C1 (single isomer, unassigned; (-)) [Example 2, dihydrochloride]
Sort entries by Ki from minimum to maximum value. # the answer lists labels in the order requested
B, A, C

(I) COc1cccc2c1N1CCN(CCCCn3c(=O)[nH]c4c(sc5cccnc54)c3=O)CC1CO2 (single isomer, unassigned; (+)) [Example 14, trihydrochloride]
(II) Cl.Cl.O=c1[nH]c2c(sc3ncccc32)c(=O)n1CCCCN1CCN2c3ccccc3OCC2C1 (single isomer, unassigned; (-)) [Example 6, dihydrochloride]
(III) COc1cccc2c1N1CCN(CCn3c(=O)[nH]c4c(sc5ncc(Cl)nc54)c3=O)CC1CO2.Cl.Cl (single isomer, unassigned; (-)) [Example 13, dihydrochloride]
(IV) Cl.Cl.O=c1[nH]c2c(sc3cccnc32)c(=O)n1CCCCN1CCN2c3ccccc3OCC2C1 (single isomer, unassigned; (+)) [Example 3, dihydrochloride]
(V) Cl.Cl.O=c1[nH]c2c(sc3cccnc32)c(=O)n1CCCN1CCN2c3ccccc3OCC2C1 (single isomer, unassigned; (+)) [Example 1, dihydrochloride]
Order the records by Ki, with each subsequent value no larger than the one before. # the answer lists labels in the order requested
II, IV, V, III, I
(II: 5.51 nM, IV: 2.09 nM, V: 1.18 nM, III: 0.685 nM, I: 0.243 nM)
